test: Pharmacokinetic assay in Balb/c mice (plasma and brain tissue)
Format: in vivo
experimental conditions: male, Balb/c, mouse, in vivo, po, 5 mg/kg, Area under curve AUC0-t
readout kind: AUC(0-t) (ng·h/mL)

[
  {
    "compound": "Cc1nn(CC(=O)[C@H]2CC[C@H]3[C@@H]4CC[C@@H]5C[C@](C)(O)CC[C@]5(F)[C@H]4CC[C@]23C)cc1C#N",
    "value": 1950
  },
  {
    "compound": "C[C@@]1(O)CC[C@@]2(F)[C@H](CC[C@H]3[C@@H]4CC[C@H](C(=O)Cn5cc(C(F)(F)F)cn5)[C@@]4(C)CC[C@@H]32)C1",
    "value": 3780
  },
  {
    "compound": "C[C@@]1(O)CC[C@@]2(F)[C@H](CC[C@H]3[C@@H]4CC[C@H](C(=O)Cn5ccc(C(F)(F)F)n5)[C@@]4(C)CC[C@@H]32)C1",
    "value": 515
  },
  {
    "compound": "C[C@@]1(O)CC[C@@]2(F)[C@H](CC[C@H]3[C@@H]4CC[C@H](C(=O)Cn5nc6ccc(F)cc6n5)[C@@]4(C)CC[C@@H]32)C1",
    "value": 1520
  },
  {
    "compound": "C[C@@]1(O)CC[C@]2(F)C3CC[C@]4(C)[C@@H](C(=O)Cn5cc(C#N)c(Cl)n5)CC[C@H]4[C@@H]3CC[C@@H]2C1 (stereo partly shown)",
    "value": 1960
  },
  {
    "compound": "C[C@@]1(O)CC[C@@]2(F)[C@H](CC[C@H]3[C@@H]4CC[C@H](C(=O)CNc5ccc(F)cc5)[C@@]4(C)CC[C@@H]32)C1",
    "value": 545
  },
  {
    "compound": "C[C@@]1(O)CC[C@]2(F)C3CC[C@]4(C)[C@@H](C(=O)CNc5ccc(F)cc5F)CC[C@H]4[C@@H]3CC[C@@H]2C1 (stereo partly shown)",
    "value": 767
  }
]

* * *

Parameter Area under curve AUC0-∞: see the listing below.
test: Pharmacokinetic assay in Balb/c mice (plasma and brain tissue)
Format: in vivo
experimental conditions: male, Balb/c, mouse, in vivo, po, 5 mg/kg
readout kind: Area under curve AUC0-∞ (ng·h/mL)

[
  {
    "molecule": "C[C@@]1(O)CC[C@]2(F)C3CC[C@]4(C)[C@@H](C(=O)CNc5ccc(F)cc5F)CC[C@H]4[C@@H]3CC[C@@H]2C1 (stereo partly drawn)",
    "value": 828.4
  },
  {
    "molecule": "C[C@@]1(O)CC[C@@]2(F)[C@H](CC[C@H]3[C@@H]4CC[C@H](C(=O)Cn5cc(C(F)(F)F)cn5)[C@@]4(C)CC[C@@H]32)C1",
    "value": 5514.3
  },
  {
    "molecule": "C[C@@]1(O)CC[C@]2(F)C3CC[C@]4(C)[C@@H](C(=O)Cn5cc(C#N)c(Cl)n5)CC[C@H]4[C@@H]3CC[C@@H]2C1 (stereo partly drawn)",
    "value": 1796.0
  }
]

* * *

test: Pharmacokinetic assay in Balb/c mice (plasma and brain tissue)
Type: in vivo
experimental conditions: male, Balb/c, mouse, brain, po, 5 mg/kg, Balb/c mice, 5 mg/kg p.o., brain tissue; read-out: Area under curve AUC0-t
readout kind: AUC(0-t)

[
  {
    "compound": "C[C@@]1(O)CC[C@@]2(F)[C@H](CC[C@H]3[C@@H]4CC[C@H](C(=O)Cn5cc(C#N)cn5)[C@@]4(C)CC[C@@H]32)C1 [Example 2]",
    "value": "1770 ng·h/mL"
  }
]
